Each recorded value in this set is attributed to patent US20070178531A1.

Listed binders paired with reported A450
Molecular target: T1, Mouse Id3: Histidine (mouse, UniProt P41133 1-119)
T1 construct: Fusion protein made in E. coli from vector pGW07; also called m-Id3: His; Mouse Id3 (coated wells); not shown: His tag
T1 sequence: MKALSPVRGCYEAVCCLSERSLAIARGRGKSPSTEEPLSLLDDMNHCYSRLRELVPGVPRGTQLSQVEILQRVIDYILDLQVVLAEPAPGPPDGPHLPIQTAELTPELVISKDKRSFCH
Test: ELISA, Ab 0.500 µg/ml
The figure you give is taken to be in A450; do not add the unit.

Field: example entries. Status: answers known.
[[record]]
binder = "rabbit monoclonal anti-mouse/human Id3, clone #BCH-4/#16-1 (antibody, V domains shown, Rabbit IgG from a rabbit hybridoma; also called m/h Id3 MoAb 16-1) VH: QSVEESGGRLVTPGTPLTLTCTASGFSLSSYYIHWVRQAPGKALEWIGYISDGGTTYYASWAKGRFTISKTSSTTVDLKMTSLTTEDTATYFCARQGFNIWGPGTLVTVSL VL: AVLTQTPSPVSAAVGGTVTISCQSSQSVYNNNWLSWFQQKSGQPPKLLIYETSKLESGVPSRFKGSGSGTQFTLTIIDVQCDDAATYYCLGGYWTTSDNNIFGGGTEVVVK"
unit_symbol = "A450"
observed_measurement = 3.61

[[record]]
binder = "rabbit monoclonal anti-mouse/human Id3, clone #BCH-4/#6-1 (antibody, V domains shown, Rabbit IgG from a rabbit hybridoma; also called m/h Id3 MoAb 6-1) VH: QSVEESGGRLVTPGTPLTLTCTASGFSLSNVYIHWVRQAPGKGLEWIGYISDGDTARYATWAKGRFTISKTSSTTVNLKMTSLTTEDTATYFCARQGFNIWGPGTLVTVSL VL: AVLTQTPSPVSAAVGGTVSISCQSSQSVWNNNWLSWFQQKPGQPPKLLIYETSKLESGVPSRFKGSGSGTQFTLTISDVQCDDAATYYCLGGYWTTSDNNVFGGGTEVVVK"
unit_symbol = "A450"
observed_measurement = 3.81

[[record]]
binder = "rabbit monoclonal anti-mouse/human Id3, clone #BCH-4/#42-1 (antibody, V domains shown, Rabbit IgG from a rabbit hybridoma; also called m/h Id3 MoAb 42-1) VH: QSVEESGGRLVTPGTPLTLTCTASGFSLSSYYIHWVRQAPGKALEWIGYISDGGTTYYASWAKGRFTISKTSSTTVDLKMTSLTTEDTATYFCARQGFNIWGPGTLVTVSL VL: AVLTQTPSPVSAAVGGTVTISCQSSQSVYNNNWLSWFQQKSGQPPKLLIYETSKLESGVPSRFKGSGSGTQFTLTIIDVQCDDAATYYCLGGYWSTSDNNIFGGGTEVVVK"
unit_symbol = "A450"
observed_measurement = 3.63


Shift focus to the following entry.
Sample rabbit monoclonal anti-mouse/human Id3, clone #BCH-4/#17-3 (antibody, V domains shown, Rabbit IgG from a rabbit hybridoma; also called m/h Id3 MoAb 17-3; BCH-3/#17-3) VH: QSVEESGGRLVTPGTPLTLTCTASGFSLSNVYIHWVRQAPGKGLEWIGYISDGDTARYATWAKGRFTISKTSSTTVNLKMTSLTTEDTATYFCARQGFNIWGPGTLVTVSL VL: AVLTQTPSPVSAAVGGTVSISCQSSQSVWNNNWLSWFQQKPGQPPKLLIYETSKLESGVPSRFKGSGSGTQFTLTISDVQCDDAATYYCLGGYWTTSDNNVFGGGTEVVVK ; A450 observed: 3.74
